Each recorded value in this set is attributed to PubChem BioAssay AID1745844.

System: rodent lifetime carcinogenesis bioassay, tumor incidence TD50
assay.details: carcinogenic potency in animals, long-term in vivo studies, CPDB compilation (AID 1745844)
measurement.parameters: mouse; strain BALB/c; females; by gavage; site: esophagus; lesion: squamous-cell papilloma; dosed 30 weeks; study length 49 weeks
observed.property: TD50 (mg/kg/day)
Numeric only. Scale: mg/kg/day

Challenge: What TD50 value was documented for this molecule, O=NN1CCCCCC1 ?
Response given: 19.7

---

Tested on: rodent lifetime carcinogenesis bioassay, tumor incidence TD50
assay.details: carcinogenic potency in animals, long-term in vivo studies, CPDB compilation (AID 1745844)
measurement.parameters: mouse; strain C57BL/6N; males; in feed; site: liver; lesion: several types; types named in the paper; dosed 78 weeks; study length 78 weeks
observed.property: TD50

Challenge: # input compound: CC(C)(Oc1ccc(C2CC2(Cl)Cl)cc1)C(=O)O (stereo unspecified) ; wanted: its TD50
Response given: 4.17 mg/kg/day
